FYI, the data here is from patent US20250066290A1.

assay: Metabolic stability in human liver microsomes; details: male
Observable: log10 of microsomal CLint (log10 of the value in µL/min/mg)
Hi team, quick reminder: these entries are log10 of microsomal CLint (µL/min/mg).

Recorded log10 of microsomal CLint, per entry:
{"Compound": "[2H]C([2H])([2H])Oc1cccc(-c2c(F)c(F)c(NC(=O)C3=C(C(=O)NS(C)(=O)=O)CCC3)c(F)c2F)c1 [Example 1/7]", "log10 of microsomal CLint": 0.12}
{"Compound": "[2H]C([2H])([2H])Oc1cccc(-c2cc(F)c(NC(=O)c3ccsc3C(=O)NOC)c(F)c2)c1 [Example 9]", "log10 of microsomal CLint": 1.88}
{"Compound": "[2H]C([2H])([2H])Oc1cccc(-c2cc(F)c(NC(=O)c3ccsc3C(=O)NOCCO)c(F)c2)c1 [Example 9/1]", "log10 of microsomal CLint": 1.83}
{"Compound": "COc1cccc(-c2c(F)c(F)c(NC(=O)C3=C(C(=O)NS(C)(=O)=O)CCC3)c(F)c2F)c1 [Example 1/13]", "log10 of microsomal CLint": 1.16}

Now for another entry.
Input: Value lookup for log10 of microsomal CLint; key = CONC(=O)c1sccc1C(=O)Nc1c(F)cc(-c2cccc(OC)c2)cc1F [Example 9/9]
Output: 1.97

###

Target: N-terminally truncated recombinant hDHODH enzyme (Homo sapiens)
Test: biochemical
Format: biochemical
Conditions: human DHODH assay; read-out: IC50 range
Description: Briefly, the hDHODH concentration was adjusted in a way that an average slope of approximately 0.2 AU/min served as the positive control (e.g. without inhibitor). The standard assay mixture contained 60 μM 2,6-dichloroindophenol, 50 μM decylubiquinone and 100 μM dihydroorotate. […] For the determination of the IC50 values, each data point was recorded in triplicate. […].
pIC50: −log10 of the molar value.
Each item that follows carries a reported pIC50.

{"Compound": "[2H]C([2H])([2H])Oc1cccc(-c2c(F)c(F)c(NC(=O)C3=C(C(=O)NOCCO)CSC3)c(F)c2F)c1 [6/2]", "Target or system": "N-terminally truncated recombinant hDHODH enzyme (Homo sapiens)", "pIC50": "> 7.00"}
{"Compound": "[2H]C([2H])([2H])Oc1cccc(-c2cc(F)c(NC(=O)C3=C(c4noc(=O)[nH]4)CCC3)c(F)c2)c1 [Example 3-2]", "Target or system": "N-terminally truncated recombinant hDHODH enzyme (Homo sapiens)", "pIC50": "< 5.00"}
{"Compound": "[2H]C([2H])([2H])Oc1cccc(-c2c(F)c(F)c(NC(=O)c3cscc3C(=O)NOC)c(F)c2F)c1 [4/28]", "Target or system": "N-terminally truncated recombinant hDHODH enzyme (Homo sapiens)", "pIC50": "> 7.00"}

Okay, next one:
Input: Quick one: pIC50 for [2H]C([2H])([2H])Oc1cccc(-c2c(F)c(F)c(NC(=O)C3=C(C(=O)NOC)COC3)c(F)c2F)c1 [Example 5/4] ?
Output: > 7.00

###

Here, each record is paired with measured IC50 data.
biological target: N-terminally truncated recombinant hDHODH enzyme (Homo sapiens, UniProt Q02127); assay: biochemical; type: biochemical
Sequence (Q02127 whole entry, looked up, the tested form may be a part): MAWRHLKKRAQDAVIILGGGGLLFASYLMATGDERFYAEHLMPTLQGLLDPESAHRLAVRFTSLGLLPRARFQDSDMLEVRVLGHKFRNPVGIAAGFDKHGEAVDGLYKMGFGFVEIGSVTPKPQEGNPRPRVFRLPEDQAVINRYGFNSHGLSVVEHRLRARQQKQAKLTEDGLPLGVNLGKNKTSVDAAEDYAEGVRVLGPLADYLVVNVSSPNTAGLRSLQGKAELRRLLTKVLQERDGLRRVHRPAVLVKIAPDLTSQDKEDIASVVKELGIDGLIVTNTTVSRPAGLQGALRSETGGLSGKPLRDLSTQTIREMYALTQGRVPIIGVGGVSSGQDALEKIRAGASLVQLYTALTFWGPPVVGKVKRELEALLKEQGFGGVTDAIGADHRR

Example entries begin here.
{"Chem smiles": "[2H]C([2H])([2H])Oc1cccc(-c2cc(F)c(N(CC(=O)OC)C(=O)C3=C(C(=O)NOC)CCC3)c(F)c2)c1", "Target or system": "N-terminally truncated recombinant hDHODH enzyme (Homo sapiens, UniProt Q02127)", "Observable": "IC50", "Assay result": "1000 to 10000 nM"}
{"Chem smiles": "[2H]c1c([2H])c(-c2cccc(OC([2H])([2H])[2H])c2)c([2H])c(C([2H])([2H])[2H])c1NC(=O)C1=C(C(=O)NS(C)(=O)=O)CCC1", "Target or system": "N-terminally truncated recombinant hDHODH enzyme (Homo sapiens, UniProt Q02127)", "Observable": "IC50", "Assay result": "1000 to 10000 nM"}
{"Chem smiles": "[2H]C([2H])([2H])Oc1cccc(-c2cc(F)c(NC(=O)C3=C(C(=O)NS(N)(=O)=O)COC3)c(F)c2)c1", "Target or system": "N-terminally truncated recombinant hDHODH enzyme (Homo sapiens, UniProt Q02127)", "Observable": "IC50", "Assay result": "100 to 1000 nM"}

Now for another entry.
Input: Enter reported IC50 observed with N-terminally truncated recombinant hDHODH enzyme (Homo sapiens, UniProt Q02127) for [2H]C([2H])([2H])Oc1cccc(-c2cc(F)c(NC(=O)C3=C(C(=O)NOCCF)CCC3)c(F)c2)c1
Output: 100 to 1000 nM
